All figures here come from patent US3984555A.

compounds and their reported ED30
# Tested on: blood pressure and cardiac frequency of the narcotised rat
# assay-text: Influence on the blood pressure and the cardiac frequency of the narcotised rat (Table II)
# Type: in vivo
# applied-conditions: iv, i/v, read-out: Blood pressure lowered by 30% by mg/kg i/v
parameter-measured: ED30 (mg/kg)

compound="COc1cc2nc(CCN3CCN(c4cccc(F)c4)CC3)[nH]c(=O)c2cc1OC [Example 15]" reported_value=0.2
compound="COc1cc2nc(CCN3CCN(c4ccc(C)cc4)CC3)[nH]c(=O)c2cc1OC [Example 4]" reported_value=0.65
compound="COc1cc2nc(CCN3CCN(c4ccc(F)cc4)CC3)[nH]c(=O)c2cc1OC [Example 16]" reported_value=0.6
compound="COc1cc2nc(CCN3CCN(c4cccc(C)c4)CC3)[nH]c(=O)c2cc1OC [Example 3]" reported_value=0.32
compound="COc1cc2nc(CCN3CCN(c4ccccc4)CC3)[nH]c(=O)c2cc1OC [Example 1]" reported_value=0.3
compound="COc1cc2nc(CCN3CCN(c4ccccc4Cl)CC3)[nH]c(=O)c2cc1OC [Example 11]" reported_value=0.1
compound="Cc1ccc(N(CC2=NCCN2)c2cccc(O)c2)cc1 [Phentolamine, phentolamine, reference compound]" reported_value=0.63
compound="CCOc1ccccc1N1CCN(CCc2nc3cc(OC)c(OC)cc3c(=O)[nH]2)CC1 [Example 10]" reported_value=0.4

---

# Test system: mouse
# assay-text: Mice falling from a rotating bar (Table III, a)
# Assay type: in vivo
# applied-conditions: ip, read-out: a PD50 mg/kg i.p.
compounds and their reported ED50
parameter-measured: ED50 (mg/kg)

compound=COc1cc2nc(CCN3CCN(c4ccc(F)cc4)CC3)[nH]c(=O)c2cc1OC output_unit=mg/kg reported_value=14
compound=COc1cc2nc(CCN3CCN(c4ccc(C)cc4)CC3)[nH]c(=O)c2cc1OC output_unit=mg/kg reported_value=23
compound=COc1cc2nc(CCN3CCN(c4ccccc4F)CC3)[nH]c(=O)c2cc1OC output_unit=mg/kg reported_value=61
compound=COc1cc2nc(CCN3CCN(c4cccc(C)c4)CC3)[nH]c(=O)c2cc1OC output_unit=mg/kg reported_value=24
compound=COc1cc2nc(CCN3CCN(c4ccccc4OC)CC3)[nH]c(=O)c2cc1OC output_unit=mg/kg reported_value=34
compound=COc1cc2nc(CCN3CCN(c4ccccc4C)CC3)[nH]c(=O)c2cc1OC output_unit=mg/kg reported_value=35
compound="CCCC(C)(COC(N)=O)COC(N)=O [Meprobamate, reference compound]" output_unit=mg/kg reported_value=95
compound=COc1cc2nc(CCN3CCN(c4ccccc4)CC3)[nH]c(=O)c2cc1OC output_unit=mg/kg reported_value=33
compound="CNC1=Nc2ccc(Cl)cc2C(c2ccccc2)=[N+]([O-])C1 [Chlordiazepoxide, chlorodiazepoxide, reference compound]" output_unit=mg/kg reported_value=38
compound=COc1cc2nc(CCN3CCN(c4ccccc4Cl)CC3)[nH]c(=O)c2cc1OC output_unit=mg/kg reported_value=53

---

molecules and their reported ED30
# Test system: blood pressure and cardiac frequency of the narcotised rat
# assay-text: Influence on the blood pressure and the cardiac frequency of the narcotised rat (Table II)
# Type: in vivo
# applied-conditions: iv, i/v, read-out: Blood pressure lowered by 30% by mg/kg i/v
parameter-measured: ED30 (mg/kg)

molecule="COc1cc2nc(CCN3CCN(c4ccccc4C)CC3)[nH]c(=O)c2cc1OC [Example 2]" reported_value=0.65
molecule="COc1cc2nc(CCCN3CCN(c4ccccc4OC)CC3)[nH]c(=O)c2cc1OC [Example 20]" reported_value=0.65
molecule="COc1cc2nc(CCN3CCN(c4ccccc4OC)CC3)n(C)c(=O)c2cc1OC [Example 8]" reported_value=0.12
molecule="COc1cc2nc(CCN3CCN(c4ccccc4OC)CC3)[nH]c(=O)c2cc1OC [Example 6]" reported_value=0.35
molecule="COc1cc2nc(CCN3CCN(c4ccccc4F)CC3)[nH]c(=O)c2cc1OC [Example 14]" reported_value=0.18
